Target: P2Y purinoceptor 12 (Homo sapiens)
Sequence (Q9H244 whole entry): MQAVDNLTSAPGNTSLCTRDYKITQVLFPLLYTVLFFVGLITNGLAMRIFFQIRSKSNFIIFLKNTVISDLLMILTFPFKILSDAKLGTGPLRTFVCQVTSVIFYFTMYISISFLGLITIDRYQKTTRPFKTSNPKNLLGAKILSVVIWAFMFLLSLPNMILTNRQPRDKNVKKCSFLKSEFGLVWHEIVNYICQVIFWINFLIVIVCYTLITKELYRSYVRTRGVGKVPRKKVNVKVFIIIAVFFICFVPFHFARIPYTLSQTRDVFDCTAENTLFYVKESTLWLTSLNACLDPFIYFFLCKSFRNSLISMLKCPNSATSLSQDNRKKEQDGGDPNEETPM
Experiment: Binding affinity to human recombinant P2Y12 receptor expressed in CHO cells
What pKi was measured for each of the following?
One number for each entry, as −log10 of the molar value.

Guide cases for pKi, answers given:
CCOC(=O)N1CCN(C(=O)[C@H](CCC(=O)O)NC(=O)c2cc(N3CCC(N)CC3)cc(-c3ccccc3)n2)CC1 :: 7.57
CCOC(=O)N1CCN(C(=O)[C@H](CCC(=O)O)NC(=O)c2cc(NCCOC)cc(-c3ccccc3)n2)CC1 :: 7.00
CCOC(=O)N1CCN(C(=O)[C@H](CCC(=O)O)NC(=O)c2cc(NC)cc(-c3ccccc3)n2)CC1 :: 7.46

// next item, pKi requested
Ask | Please report the recorded pKi for `CCCCOC(=O)N1CCN(C(=O)[C@H](CCC(=O)O)NC(=O)c2cccc(-c3ccccc3)n2)CC1` .
Reply | 7.54

* * *

Test: Drug concentration in rat bile at 2 mg/kg, iv after 4 hrs
Assay type: ADME, organism-based
Set-up: dose 2 mg/kg, route intravenous
Settings: read-out: Drug uptake
Measurement kind: dose excreted at 4 h (%)
Give bare numbers, in %.

Ask | Please report the recorded dose excreted at 4 h for `CCCCCOC(=O)N1CCN(C(=O)[C@H](CCC(=O)O)NC(=O)c2cc(N3CCC(COC)CC3)cc(-c3ccccc3)n2)CC1` .
Reply | 70

* * *

Target: P2Y purinoceptor 12 (Homo sapiens)
Assay: Binding affinity to human recombinant P2Y12 receptor expressed in CHO cells
Measurement kind: pKi
Numbers only, as −log10 of the molar value.

Guide cases for pKi, answers given:
CCCCCOC(=O)N1CCN(C(=O)[C@H](CCC(=O)O)NC(=O)c2cc(OC3CCNCC3)cc(-c3ccccc3)n2)CC1 :: 8.42
CCCCCOC(=O)N1CCN(C(=O)[C@H](CCC(=O)O)NC(=O)c2cc(OCCCC)cc(-c3ccccc3)n2)CC1 :: 7.31
CCOC(=O)N1CCN(C(=O)[C@H](CCC(=O)O)NC(=O)c2cc(OC(CC)C(=O)N(CC)CC)cc(-c3ccccc3)n2)CC1 (stereo partly specified) :: 7.09
CCOC(=O)N1CCN(C(=O)[C@H](CCC(=O)O)NC(=O)c2cc(NCC3CCNCC3)cc(-c3ccccc3)n2)CC1 :: 6.72
CCCCCCCOC(=O)N1CCN(C(=O)[C@H](CCC(=O)O)NC(=O)c2cccc(-c3ccccc3)n2)CC1 :: 8.15

Hi there! I need pKi for each item below, if you can.
1. CCOC(=O)N1CCN(C(=O)[C@H](CCC(=O)O)NC(=O)c2cc(OCCN)cc(-c3ccccc3)n2)CC1
2. CCCCOC(=O)N1CCN(C(=O)[C@H](CCC(=O)O)NC(=O)c2cc(OCCO)cc(-c3ccccc3)n2)CC1
3. CCOC(=O)N1CCN(C(=O)[C@H](CCC(=O)O)NC(=O)c2cc(NC3CCOCC3)cc(-c3ccccc3)n2)CC1
4. CCOC(=O)N1CCN(C(=O)[C@H](CCC(=O)O)NC(=O)c2cc(N3CCC(O)CC3)cc(-c3ccccc3)n2)CC1

Reply |
6.48
7.68
6.34
7.38

Hi there! I need pKi for each item below, if you can.
1. CCOC(=O)N1CCN(C(=O)[C@H](CCC(=O)O)NC(=O)c2cc(OCCOC)cc(-c3ccccc3)n2)CC1
2. CC(C)OC(=O)N1CCN(C(=O)[C@H](CCC(=O)O)NC(=O)c2cc(OCCO)cc(-c3ccccc3)n2)CC1

Reply |
1: 7.04; 2: 6.84
